- Target Desc: 5-hydroxytryptamine receptor 1B (Rattus norvegicus)
- Sequence (P28564 whole entry): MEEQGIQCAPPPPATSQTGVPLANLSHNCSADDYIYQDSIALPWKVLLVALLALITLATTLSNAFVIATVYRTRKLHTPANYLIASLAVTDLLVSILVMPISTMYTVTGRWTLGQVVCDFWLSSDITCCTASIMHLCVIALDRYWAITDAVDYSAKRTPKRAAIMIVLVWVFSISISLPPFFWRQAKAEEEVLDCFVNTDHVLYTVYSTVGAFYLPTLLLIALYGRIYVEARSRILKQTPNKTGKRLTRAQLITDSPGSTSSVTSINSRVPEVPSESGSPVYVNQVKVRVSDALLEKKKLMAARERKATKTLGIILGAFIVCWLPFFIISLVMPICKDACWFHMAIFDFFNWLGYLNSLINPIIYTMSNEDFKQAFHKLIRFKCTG
- Test Name: Binding affinity for 5-hydroxytryptamine 1B receptor
pIC50: −log10 of the molar value.
So I've got a bunch of molecules here, and I need their pIC50 values.

Item: `Cc1sc2c(nc(N3CCN(Cc4ccccc4)CC3)c3cccn32)c1C` Test system: 5-hydroxytryptamine receptor 1B (Rattus norvegicus) Read-out: pIC50 Value: ?
< 4.00

Subsequent entry: Clc1ccc(C(c2ccccc2)N2CCN(c3nc4ccsc4n4cccc34)CC2)cc1 (stereo unspecified)
< 4.00

Next: `c1ccc(C2CCN(c3nc4ccsc4n4cccc34)CC2)cc1`
< 4.00

Next entry: `FC(F)(F)c1cccc(N2CCN(c3nc4sc(-c5ccccc5)cc4n4cccc34)CC2)c1`
< 4.00

Field entry: `c1cc2c(N3CCOCC3)nc3ccsc3n2c1`
< 4.00

# repeat for `c1cc2c(N3CCCCC3)nc3ccsc3n2c1`
< 4.00

----------
Measured IC50 (5-hydroxytryptamine receptor 2A (Bos taurus, UniProt Q75Z89))

For the molecule `c1cc2c(N3CCCCC3)nc3ccsc3n2c1` , what IC50 is on record?
> 100 µM

Now try `c1ccc(CN2CCN(c3nc4sc(-c5ccccc5)cc4n4cccc34)CC2)cc1` .
> 100 µM

What do you have for `c1ccc(C2CCN(c3nc4ccsc4n4cccc34)CC2)cc1` ?
> 100 µM

----------
For each entry below, report its IC50 value.
- Target Desc: 5-hydroxytryptamine receptor 1A (Homo sapiens)
- Sequence (P08908 whole entry): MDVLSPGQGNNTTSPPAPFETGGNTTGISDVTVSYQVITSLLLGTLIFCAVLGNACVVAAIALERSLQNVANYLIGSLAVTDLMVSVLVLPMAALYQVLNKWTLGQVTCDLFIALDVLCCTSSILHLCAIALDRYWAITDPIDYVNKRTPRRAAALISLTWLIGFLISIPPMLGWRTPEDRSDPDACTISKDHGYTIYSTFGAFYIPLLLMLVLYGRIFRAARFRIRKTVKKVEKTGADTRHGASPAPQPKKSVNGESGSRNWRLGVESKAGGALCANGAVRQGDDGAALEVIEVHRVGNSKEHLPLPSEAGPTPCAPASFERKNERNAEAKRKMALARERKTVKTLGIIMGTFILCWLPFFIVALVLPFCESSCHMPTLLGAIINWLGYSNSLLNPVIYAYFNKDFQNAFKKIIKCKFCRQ
- Test Name: Binding affinity for 5-hydroxytryptamine 1A receptor
Lab book: enter the figure in nM, no units written.

Fill in the blank: the reported IC50 of `CCCN1CCN(c2nc3ccsc3n3cccc23)CC1` is ____.
93.3

Entry `CN1CCN(c2nc3ccsc3n3cccc23)CC1` please
117

What do you get for `C(=C\c1ccccc1)/CN1CCN(c2nc3ccsc3n3cccc23)CC1` ?
83.2

How about this compound: `CN1CCN(c2nc3cc(-c4ccccc4)sc3n3cccc23)CC1`
4900
